System: LG0567-F671-PDC multi-cell spheroid viability;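 also: viability read after 7 days of drug exposure; 100% = DMSO vehicle control luminescence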
measurement_description: Anticancer human tumor LG0567-F671-PDC patient-derived lung adenocarcinoma cell line growth inhibition [IpAb]
measurement_context: second compound 0.316 µM; first compound 3.16 µM; hits give low values
reported_endpoint: viability, T/C (%)
Numeric answer only, unit % assumed.

Which viability, T/C value belongs to Cn1nccc1Nc1nccc(-c2ccn(C(CO)c3ccc(Cl)c(F)c3)c(=O)c2)n1 (stereo not given) + CC(C)NCC(C(=O)N1CCN(c2ncnc3c2C(C)CC3O)CC1)c1ccc(Cl)cc1 ?
26

Which viability, T/C value belongs to C=CC(=O)N1CCN(c2nc(=O)n(-c3c(C)ccnc3C(C)C)c3nc(-c4c(O)cccc4F)c(F)cc23)C(C)C1 (stereo not given) + CC(C)NCC(C(=O)N1CCN(c2ncnc3c2C(C)CC3O)CC1)c1ccc(Cl)cc1 ?
8.74

Which viability, T/C value belongs to Cn1nccc1Nc1nccc(-c2ccn(C(CO)c3ccc(Cl)c(F)c3)c(=O)c2)n1 (stereo not given) + CCN1CCN(Cc2ccc(Nc3ncc(F)c(-c4cc(F)c5nc(C)n(C(C)C)c5c4)n3)nc2)CC1 ?
24.6

Which viability, T/C value belongs to Cc1nc(NC(=O)N2CCCC2C(N)=O)sc1-c1ccnc(C(C)(C)C(F)(F)F)c1 (stereo not given) + CC(C)NCC(C(=O)N1CCN(c2ncnc3c2C(C)CC3O)CC1)c1ccc(Cl)cc1 ?
40.2

Which viability, T/C value belongs to C=CCn1c(=O)c2cnc(Nc3ccc(N4CCN(C)CC4)cc3)nc2n1-c1cccc(C(C)(C)O)n1 + CC(C)NCC(C(=O)N1CCN(c2ncnc3c2C(C)CC3O)CC1)c1ccc(Cl)cc1 ?
36.2
